Tested on: SOCE in HEK-293 human embryonic kidney cells
Test: SOCE Fura-2 bioassay in HEK293 cells
Type: cell-based
Conditions: Homo sapiens, HEK293, read-out: IC50 SOCE, purified cannabinoids, HEK-293; Table 5
QUANTITY KIND: IC50 (µM)
Unit µM implied. Number only.

# SAMPLE SMILES, READING UNIT, IC50
measured = [
    ("CCCCCc1cc(O)c2c(c1)OC(C)(C)c1ccc(C)cc1-2", "µM", 26.9),
    ("C=C(C)[C@@H]1CCC(C)=C[C@H]1c1c(O)cc(CCC)c(C(=O)O)c1O", "µM", 20.7),
    ("C=C(C)[C@@H]1CCC(C)=C[C@H]1c1c(O)cc(CCC)cc1O", "µM", 17.8),
]

Next item in the queue.
Query string: Would you mind telling me what IC50 value was observed for CCCc1cc(O)c(C/C=C(\C)CCC=C(C)C)c(O)c1 ?
Result string: 9.16
